Test system: MS2 coat protein
ASSAY_NOTES: apparent Kd, MS2 coat protein; higher = weaker binding; RNA-MaP array
ASSAY_CONDITIONS: ligand present: flavin mononucleotide; designed as: OFF switch for flavin mononucleotide
ASSAY_ENDPOINT: apparent Kd (nM)
Your answer is read as nM, so omit the unit and give the number.

Below, each entry is followed by its recorded apparent Kd result.
Input: Tell me apparent Kd reported for GAUUCACAUGAGGAUCACCCAUGUCAGGAUAUGACUUGAGCUGUCUCCGAUCGAGCCAUCAGAAGGGACUGGAA
Output: 27.8

Input: Fill in apparent Kd for record UCAUCGAGAGAGGAUAUCGUAGCAAUUCACCAGCGAGAAGGCUCGACAUGAGGAUCACCCAUGUGGCUCCGCUU
Output: 73.6

Input: Give me measured apparent Kd, please, for this sequence: CUCGGAAACGGAGGAUAUAGCUGAAGAGGAUUACUAGAAGGCCGAGACAUGAGGAUCACCCAUGUUUUCUCAAGUCGCAGUUUA
Output: 9.48

Input: Assign apparent Kd to the following record: UCUCGUGUGAAGGAUAUAGAUAUUUAACAAAAGCUAGAAGGUCAAACAUGAGGAUCACCCAUGUUUACAUAGGA
Output: 10.9

Input: Specify apparent Kd for UGCACCGCAGGAUAUACAAUGGAGGACGUUGUGAAUCAUAGACAUGAGGAUCACCCAUGUAGAAGGGCGUAUAA and stop.
Output: 78.5

Continuing:
Input: Output measured apparent Kd for this item: AGGUAGCGAGACUUACAUGAGGAUCACCCAUGUACCACGCGGAAGGAUAUAACGGCAGGCUUUGCUUAGAAGGUCCGCGGUACU
Output: 20.4

Input: Fill in reported apparent Kd for this entry: GGUAUCGUAGGAUAUUAAUGUAGCCACAUGAGGAUCACCCAUGUAGUUCUAGUGGACCGUUAAGAAGGACGUGAUC
Output: 82.8

Input: Give apparent Kd for the following sequence: UUGCAAUAGUAGAAGGACCACUCAAGUGUGACGGUAGGAUAUACGGUACAUGAGGAUCACCCAUGUGAGACUACAGCCCUCUCC
Output: 21.9
